FYI, the data here is from paper PMC6272548.

Provide the reported melting point of each item.

Annotate the compound `S=C(NCCc1ccccc1)Nc1cccc2ccccc12` with its measured melting point.
155 to 157 °C

Annotate the compound OCCNC(=S)Nc1ccccc1 [3c, N-(2-Hydroxyethyl)-N'-phenylthiourea] with its measured melting point.
139 to 141 °C

Annotate the compound `S=C(Nc1ccccc1)Nc1ccc2c(c1)OCO2` with its measured melting point.
140 to 142 °C

Annotate the compound `S=C(NCc1ccccc1)Nc1ccc2c(c1)OCO2` with its measured melting point.
114 to 116 °C

Annotate the compound `CC(C)NC(=S)NCc1ccccc1` with its measured melting point.
121 to 123 °C

Annotate the compound `S=C(NCCc1ccccc1)NC1CCCCC1` with its measured melting point.
109 to 111 °C

Annotate the compound `CCN(CC)C(S)=NCCc1ccccc1` with its measured melting point.
72 to 74 °C

Annotate the compound `S=C(Nc1ccccc1)NC1CCCCC1` with its measured melting point.
149 to 151 °C

Annotate the compound `S=C(NCCc1ccccc1)Nc1ccc2c(c1)OCO2` with its measured melting point.
126 to 128 °C

Annotate the compound `COc1cc(NC(=S)Nc2ccccc2)cc(OC)c1OC` with its measured melting point.
164 to 166 °C

Annotate the compound `COc1cc(NC(=S)Nc2ccc3c(c2)OCO3)cc(OC)c1OC` with its measured melting point.
142 to 144 °C

Annotate the compound `CC(C)NC(=S)NCCc1ccccc1` with its measured melting point.
126 to 128 °C

Annotate the compound `CCCCNC(=S)NCCc1ccccc1` with its measured melting point.
61 to 63 °C
